Recorded Kd for the following binders
# testedTarget: T1, IFN-αC (human, UniProt P01566 24-189)
# T1 construct: Recombinant, HEK293; also called IFN-α10
# assayComment: ProteOn SPR, cell supernatant;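 also: each binding measurement used just a single antigen concentration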
All answers are understood in nM, so give the number only.

[Q] Give the measured Kd of IFWM3398 (antibody, IgG1, V domains shown, mAb; IgG1/kappa said of the parent and of selected mAbs; also called IFWB3133) VH: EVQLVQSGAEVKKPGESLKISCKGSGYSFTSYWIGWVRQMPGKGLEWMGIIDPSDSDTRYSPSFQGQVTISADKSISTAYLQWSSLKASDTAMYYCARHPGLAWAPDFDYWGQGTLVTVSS VL: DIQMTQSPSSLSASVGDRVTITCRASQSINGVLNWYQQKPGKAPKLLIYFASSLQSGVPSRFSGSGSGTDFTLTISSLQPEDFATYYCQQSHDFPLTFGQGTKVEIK .
[A] 0.017

[Q] Give the measured Kd of IFWM3403 (antibody, IgG1, V domains shown, mAb; IgG1/kappa said of the parent and of selected mAbs; also called IFWB3138) VH: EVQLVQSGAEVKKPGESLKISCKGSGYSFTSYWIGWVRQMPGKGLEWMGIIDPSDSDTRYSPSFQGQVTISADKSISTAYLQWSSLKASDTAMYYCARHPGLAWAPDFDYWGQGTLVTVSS VL: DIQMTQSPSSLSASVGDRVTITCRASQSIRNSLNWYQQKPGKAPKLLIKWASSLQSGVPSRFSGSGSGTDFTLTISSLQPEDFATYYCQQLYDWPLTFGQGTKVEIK .
[A] 0.025

[Q] Give the measured Kd of IFWM3385 (antibody, IgG1, V domains shown, mAb; IgG1/kappa said of the parent and of selected mAbs; also called IFWB3120) VH: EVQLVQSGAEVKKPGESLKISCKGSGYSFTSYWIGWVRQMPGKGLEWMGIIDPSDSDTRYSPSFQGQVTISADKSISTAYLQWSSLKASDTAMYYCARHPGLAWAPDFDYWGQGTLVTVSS VL: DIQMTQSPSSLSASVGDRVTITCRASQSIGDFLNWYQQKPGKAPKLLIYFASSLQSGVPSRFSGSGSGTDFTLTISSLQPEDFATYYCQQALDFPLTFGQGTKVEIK .
[A] 0.041

[Q] Give the measured Kd of IFWM3399 (antibody, IgG1, V domains shown, mAb; IgG1/kappa said of the parent and of selected mAbs; also called IFWB3134) VH: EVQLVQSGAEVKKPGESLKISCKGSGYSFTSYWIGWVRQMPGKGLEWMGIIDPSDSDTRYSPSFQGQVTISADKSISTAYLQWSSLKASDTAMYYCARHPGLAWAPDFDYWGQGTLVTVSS VL: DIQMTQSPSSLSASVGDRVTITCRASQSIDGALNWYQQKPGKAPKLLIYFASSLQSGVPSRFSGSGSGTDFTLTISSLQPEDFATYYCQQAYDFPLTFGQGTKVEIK .
[A] 0.025

[Q] Give the measured Kd of IFWM3393 (antibody, IgG1, V domains shown, mAb; IgG1/kappa said of the parent and of selected mAbs; also called IFWB3128) VH: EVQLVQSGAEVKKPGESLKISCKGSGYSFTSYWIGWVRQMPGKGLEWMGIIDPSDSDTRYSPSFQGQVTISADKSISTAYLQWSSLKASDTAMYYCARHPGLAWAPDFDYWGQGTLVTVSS VL: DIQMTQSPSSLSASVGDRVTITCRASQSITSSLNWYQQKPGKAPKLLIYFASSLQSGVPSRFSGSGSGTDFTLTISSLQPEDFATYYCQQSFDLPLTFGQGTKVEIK .
[A] 0.049
